molecular target: native human MET on living cells (human, UniProt P08581 25-1390); assay: cell-based or functional assay
Sequence (P08581 25-1390): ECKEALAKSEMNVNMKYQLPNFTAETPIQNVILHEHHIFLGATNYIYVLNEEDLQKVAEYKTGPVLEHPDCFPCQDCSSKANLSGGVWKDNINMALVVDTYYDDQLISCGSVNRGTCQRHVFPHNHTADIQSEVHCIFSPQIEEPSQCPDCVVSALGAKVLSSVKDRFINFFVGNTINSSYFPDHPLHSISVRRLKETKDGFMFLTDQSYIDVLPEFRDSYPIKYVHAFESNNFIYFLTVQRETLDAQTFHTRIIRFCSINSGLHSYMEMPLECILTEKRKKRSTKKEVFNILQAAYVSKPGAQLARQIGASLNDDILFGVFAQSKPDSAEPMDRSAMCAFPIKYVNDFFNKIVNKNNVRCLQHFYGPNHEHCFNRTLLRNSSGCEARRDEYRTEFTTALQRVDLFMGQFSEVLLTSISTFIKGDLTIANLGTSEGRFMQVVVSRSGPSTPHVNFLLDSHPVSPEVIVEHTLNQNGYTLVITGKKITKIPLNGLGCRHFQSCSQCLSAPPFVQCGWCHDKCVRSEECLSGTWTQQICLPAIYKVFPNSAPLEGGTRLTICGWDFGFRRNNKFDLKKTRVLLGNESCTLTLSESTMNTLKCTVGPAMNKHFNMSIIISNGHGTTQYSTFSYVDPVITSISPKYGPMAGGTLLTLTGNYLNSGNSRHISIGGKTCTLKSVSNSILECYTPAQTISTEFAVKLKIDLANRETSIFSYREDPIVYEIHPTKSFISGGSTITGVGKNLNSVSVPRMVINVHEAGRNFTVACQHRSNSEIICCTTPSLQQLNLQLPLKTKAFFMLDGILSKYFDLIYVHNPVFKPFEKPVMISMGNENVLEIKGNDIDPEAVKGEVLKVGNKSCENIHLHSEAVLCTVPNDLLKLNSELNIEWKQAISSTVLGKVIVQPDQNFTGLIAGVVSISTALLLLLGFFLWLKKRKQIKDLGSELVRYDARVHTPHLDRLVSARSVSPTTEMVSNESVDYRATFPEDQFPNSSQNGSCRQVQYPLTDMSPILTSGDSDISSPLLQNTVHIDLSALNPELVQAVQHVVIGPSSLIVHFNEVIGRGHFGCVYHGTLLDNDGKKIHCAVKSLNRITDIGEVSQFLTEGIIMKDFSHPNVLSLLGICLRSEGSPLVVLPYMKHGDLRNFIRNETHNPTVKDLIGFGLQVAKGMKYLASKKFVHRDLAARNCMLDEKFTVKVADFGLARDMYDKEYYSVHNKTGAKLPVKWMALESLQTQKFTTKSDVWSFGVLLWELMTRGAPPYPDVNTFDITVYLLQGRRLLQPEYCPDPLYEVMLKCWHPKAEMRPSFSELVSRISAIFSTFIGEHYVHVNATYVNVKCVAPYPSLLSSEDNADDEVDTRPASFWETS
Listing of recorded scatter score 0-4, HPAF-II, 3.000 nM by entry.
Hi! Could you send only the number? It should be in score, unit omitted.

71C3 chimeric llama-human IgG1 mAb (antibody, V domains shown, llama VH on human IgG1 CH1-CH2-CH3, llama VL on human lambda CL) VH: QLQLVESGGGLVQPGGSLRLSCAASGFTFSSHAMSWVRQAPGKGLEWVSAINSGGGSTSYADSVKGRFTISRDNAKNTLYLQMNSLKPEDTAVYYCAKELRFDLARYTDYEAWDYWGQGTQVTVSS VL: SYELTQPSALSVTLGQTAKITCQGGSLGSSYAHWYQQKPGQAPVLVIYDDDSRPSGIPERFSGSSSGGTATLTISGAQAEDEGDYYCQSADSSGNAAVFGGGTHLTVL	4
71G12 chimeric llama-human IgG1 mAb (antibody, V domains shown, llama VH on human IgG1 CH1-CH2-CH3, llama VL on human kappa CL) VH: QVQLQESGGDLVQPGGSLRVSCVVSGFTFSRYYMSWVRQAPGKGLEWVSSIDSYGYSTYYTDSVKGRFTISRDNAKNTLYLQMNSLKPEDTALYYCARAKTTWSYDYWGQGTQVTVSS VL: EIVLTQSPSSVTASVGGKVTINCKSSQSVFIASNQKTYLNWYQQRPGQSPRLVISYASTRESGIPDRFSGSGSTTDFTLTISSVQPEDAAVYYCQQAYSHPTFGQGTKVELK	2

Request: Could you tell me which scatter score 0-4, HPAF-II, 3.000 nM is on file for 76H10 chimeric llama-human IgG1 mAb (antibody, V domains shown, llama VH on human IgG1 CH1-CH2-CH3, llama VL on human lambda CL) VH: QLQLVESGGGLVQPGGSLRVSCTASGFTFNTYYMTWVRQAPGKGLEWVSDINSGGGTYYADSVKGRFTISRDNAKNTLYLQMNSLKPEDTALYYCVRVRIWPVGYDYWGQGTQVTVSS VL: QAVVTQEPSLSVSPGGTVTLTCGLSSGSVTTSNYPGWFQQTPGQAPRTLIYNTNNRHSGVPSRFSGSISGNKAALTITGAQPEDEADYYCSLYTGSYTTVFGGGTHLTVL ?
Response: 2
